experimentNotes: CCTE_Shafer_MEA_acute_per_burst_spike_number_mean: CCTE's Neural Acute Assay for Average Number of Spikes Per Burst, Shafer Lab (AID 2284015);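 also: hits are decreases in mean spikes per burst versus baseline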
Activity calls are given as the source filed them. The calls were made as follows: active = hit-call score of the fitted dose curve at least 0.9, where 1 is the maximum; inactive = score below 0.9.
Allowed answers: active, inactive

compoundstring=CCCN(C1CCN(C(=O)C2CCNCC2)CC1)[C@@H]1CCc2ccc(OC)cc2C1 qualitativelabel=inactive
compoundstring=CC[C@H]1OC(=O)[C@H](C)[C@@H](O[C@H]2C[C@@](C)(OC)[C@@H](O)[C@H](C)O2)[C@H](C)[C@@H](O[C@@H]2O[C@H](C)C[C@H](N(C)C)[C@H]2O)[C@](C)(O)C[C@@H](C)C(=O)[C@H](C)[C@@H](O)[C@]1(C)O qualitativelabel=inactive

How did this test come out for `COc1cccc(-c2ccc(/C=C\CN3CCCCCC3)cc2Cl)c1` ? inactive

Now this one: `CCCCCCc1ccc(O)cc1O` active

Another molecule: `CCC(C)(C)C(=O)O[C@H]1C[C@@H](C)C=C2C=C[C@H](C)[C@H](CC[C@@H]3C[C@@H](O)CC(=O)O3)[C@H]21` inactive

###

testedOn: Hypoxia-inducible factor 1-alpha (Homo sapiens) (UniProt Q16665)
Sequence (Q16665 whole entry, looked up): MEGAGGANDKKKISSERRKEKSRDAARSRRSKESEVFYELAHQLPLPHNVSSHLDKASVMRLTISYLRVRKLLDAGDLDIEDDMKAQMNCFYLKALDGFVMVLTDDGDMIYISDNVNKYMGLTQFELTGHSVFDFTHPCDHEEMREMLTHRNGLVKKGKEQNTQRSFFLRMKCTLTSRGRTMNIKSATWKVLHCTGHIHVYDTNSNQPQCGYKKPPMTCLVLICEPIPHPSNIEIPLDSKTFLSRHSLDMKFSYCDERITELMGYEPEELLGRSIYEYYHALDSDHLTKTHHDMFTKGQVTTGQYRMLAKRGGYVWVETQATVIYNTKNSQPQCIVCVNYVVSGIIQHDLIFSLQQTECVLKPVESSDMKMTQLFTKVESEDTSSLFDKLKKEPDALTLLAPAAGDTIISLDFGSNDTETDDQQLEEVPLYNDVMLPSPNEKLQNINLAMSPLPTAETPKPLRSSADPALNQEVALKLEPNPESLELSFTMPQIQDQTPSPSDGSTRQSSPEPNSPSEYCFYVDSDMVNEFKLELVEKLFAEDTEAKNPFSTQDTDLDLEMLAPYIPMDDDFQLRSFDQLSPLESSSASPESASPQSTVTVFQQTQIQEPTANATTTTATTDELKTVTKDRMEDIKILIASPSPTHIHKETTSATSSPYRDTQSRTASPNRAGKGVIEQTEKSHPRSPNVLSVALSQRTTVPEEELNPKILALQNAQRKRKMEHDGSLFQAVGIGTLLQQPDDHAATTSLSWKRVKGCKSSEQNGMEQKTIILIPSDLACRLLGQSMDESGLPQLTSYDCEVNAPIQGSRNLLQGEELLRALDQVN
experimentNotes: ATG_HIF1a_CIS: Attagene CIS-FACTORIAL HepG2 Assay for human Hypoxia Inducible Factor 1 (HIF1A) (AID 2282951)
studyConditions: HepG2 Attagene cis-factorial HIF1a reporter transcription; actives raise or lower the signal
Active and inactive are the calls of the source. How the source made its calls: active means hit-call score of the fitted dose curve at least 0.9, where 1 is the maximum; inactive means score below 0.9.
Just give me one of these, please: true (1) for active, false (0) for inactive

Worked examples, 4 molecules total:
molecule=C1=CCCC=CCCC=CCC1 qualitativelabel="false (0)"
molecule=CC(=O)OCCC(C)C qualitativelabel="false (0)"
molecule="CCOC(=O)COc1ccc2c(c1)CC(NCC(O)c1cccc(Cl)c1)CC2 (configuration not stated)" qualitativelabel="true (1)"
molecule=Cc1ccc(S(=O)(=O)O)cc1C qualitativelabel="false (0)"

// return assay outcome for `CC[C@H]1CC[C@H](NCc2cc3c(cc2OC)[C@H]2C[C@H]2C(=O)N3C)[C@H](c2ccccc2)N1` false (0)

Cool, now `Cc1ccc(C)c(O)c1` false (0)

Let us now turn to CC(C)CC(C)(O)C#CC(C)(O)CC(C)C (configuration not stated) false (0)

###

experimentNotes: BSK_4H_SRB: Viability Assessment in the BioMAP Diversity Plus: 4H Assay (AID 2283027);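 also: cells exposed to compound for 24 h before staining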
studyConditions: primary human endothelial cells (HUVEC)
Activity calls are given as the source filed them. The calls were made as follows: active = hit-call score of the fitted dose curve at least 0.9, where 1 is the maximum; inactive = score below 0.9.
Would you mind answering with one of these outcomes? 1 = active, -1 = inactive

Consider the following illustrative entries.
molecule=O=C(O)c1cc(N=Nc2ccc(S(=O)(=O)Nc3ccccn3)cc2)ccc1O qualitativelabel=-1
molecule=COC(=O)c1c(Cl)c(Cl)c(C(=O)OC)c(Cl)c1Cl qualitativelabel=-1
molecule=O=C1CCCCCN1 qualitativelabel=-1
molecule="CC(C)CC(C)(O)C#CC(C)(O)CC(C)C (stereo not given)" qualitativelabel=-1
molecule="CNS(=O)(=O)c1cc(C(=O)N2CCC(CCN3C4CCC3CC(n3c(C)nc5ccccc53)C4)(c3cccc(F)c3)CC2)c(Cl)cc1F (stereo not given)" qualitativelabel=1
molecule=CCCCCCCCCCCCc1ccccc1 qualitativelabel=-1
molecule=CC(C)=CCCC(C)=CC=O qualitativelabel=-1
molecule="CC(C)=CCCC(C)CCO (stereo not given)" qualitativelabel=-1

GET /call?item= `Cc1ccc(O)cc1` returns the recorded outcome of this test. -1

Also, CC(O)CN(CCN(CC(C)O)CC(C)O)CC(C)O (stereo not given) please. -1

###

experimentNotes: CEETOX_H295R_ESTRADIOL: CeeTox H295R High-throughput Steroidogenesis Assay for Estradiol (AID 2283440);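 also: estradiol secreted into medium quantified by LC-MS/MS after dansyl derivatisation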
studyConditions: actives raise or lower the signal
Active and inactive are the calls of the source. Rule for the calls: active = hit-call score of the fitted dose curve at least 0.9, where 1 is the maximum; inactive = score below 0.9.
Tick one outcome: active, inactive

Below, 3 compounds whose answers are already recorded.
compound=CCC(C)(C)C(=O)O[C@H]1C[C@@H](C)C=C2C=C[C@H](C)[C@H](CC[C@@H]3C[C@@H](O)CC(=O)O3)[C@H]21 qualitativelabel=inactive
compound=C=CCCCCCCCCC(=O)O qualitativelabel=inactive
compound="O=c1[nH]c2ccc(S(=O)CCN3CCC(Cc4ccc(F)cc4)CC3)cc2o1 (configuration not stated)" qualitativelabel=inactive

Recorded call for `Cc1ccc(N)cc1O` ? active

And then `CC[C@H](C)C(=O)O[C@H]1C[C@@H](C)C=C2C=C[C@H](C)[C@H](CC[C@@H]3C[C@@H](O)CC(=O)O3)[C@H]21` , what is it? inactive

And `COc1cccc(-c2ccc(/C=C\CN3CCCCCC3)cc2Cl)c1` ? inactive

How about this compound: `Cn1c(=O)cc(Oc2ccc(F)cc2F)c2cnc(NCC(C)(C)O)nc21` inactive

###

testedOn: human Dopamine Transporter (DAT), SLC6A3 (gene 6531)
experimentNotes: NVS_TR_hDAT: NovaScreen (NVS) Transporter Assay for human Dopamine Transporter (DAT) (AID 2283374);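 also: activity means loss of bound radioligand signal relative to DMSO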
Inconclusive results are not listed. The source made the active and inactive calls. How the source made its calls: active means hit-call score of the fitted dose curve at least 0.9, where 1 is the maximum; inconclusive means response in the unintended direction; inactive means score below 0.9.
reportedEndpoint: AC50

molecule=CC(C)CCO result=inactive
molecule=CCn1nc(Cc2ccccc2)cc1C1CCN(C[C@H]2C[C@H](N(C)[C@@H](C(=O)O)C(C)C)C[C@@H]2c2cccc(F)c2)CC1 result="9.06 µM (active)"
molecule=CCCC(=O)OCC result=inactive
molecule=CNCc1ccc(NC(=O)c2c[nH]c3c2C(=O)CCC3)cc1 result="13.8 µM (active)"
molecule=Cc1[nH]cnc1C[C@H]1CCc2c(C)c3ccccc3n2C1=O result="11.6 µM (active)"
molecule="CCOC(=O)c1ccc(C2CCC(NC[C@H](O)COc3ccc(O)c(NS(C)(=O)=O)c3)CC2)cc1 (stereo partly drawn)" result="0.321 µM (active)"
molecule="CNS(=O)(=O)c1cc(C(=O)N2CCC(CCN3C4CCC3CC(n3c(C)nc5ccccc53)C4)(c3cccc(F)c3)CC2)c(Cl)cc1F (stereo not drawn)" result="8.74 µM (active)"
molecule=COc1cccc(-c2ccc(/C=C\CN3CCCCCC3)cc2Cl)c1 result="5.87 µM (active)"
molecule="O=C(O)CC(O)C(=O)O (stereo not drawn)" result="4.96 µM (active)"
molecule=CCC(C)(C)C(=O)O[C@H]1C[C@@H](C)C=C2C=C[C@H](C)[C@H](CC[C@@H]3C[C@@H](O)CC(=O)O3)[C@H]21 result="25 µM (active)"

For each listed entry, give its AC50.
1. Nc1ccc(Nc2ccccc2)cc1
2. O=C(OC[C@H]1O[C@@H](OC(=O)c2cc(O)c(O)c(OC(=O)c3cc(O)c(O)c(O)c3)c2)[C@H](OC(=O)c2cc(O)c(O)c(OC(=O)c3cc(O)c(O)c(O)c3)c2)[C@@H](OC(=O)c2cc(O)c(O)c(OC(=O)c3cc(O)c(O)c(O)c3)c2)[C@@H]1OC(=O)c1cc(O)c(O)c(OC(=O)c2cc(O)c(O)c(O)c2)c1)c1cc(O)c(O)c(OC(=O)c2cc(O)c(O)c(O)c2)c1

7.42 µM (active)
2.65 µM (active)

// query AC50 value for entry CC/C(=C\C(=N/O)C(N)=O)C(C)[N+](=O)[O-] (stereo not drawn) inactive

###

experimentNotes: BSK_3C_VCAM1: BioMAP Diversity Plus: 3C Assay for Vascular cell adhesion molecule 1 (VCAM1) Biomarker Activity (AID 2282999)
studyConditions: BioMAP 3C HUVEC, VCAM1 ELISA, cytokine-stimulated; actives raise or lower the signal
Active and inactive are the calls of the source. The calls were made as follows: active = hit-call score of the fitted dose curve at least 0.9, where 1 is the maximum; inactive = score below 0.9.
reportedEndpoint: AC50

compound=CC(C)CCO reportedendpoint=AC50 result=inactive
compound=O=P(OC(CCl)CCl)(OC(CCl)CCl)OC(CCl)CCl reportedendpoint=AC50 result=inactive
compound=CC1(C)C(=O)N(Br)C(=O)N1Br reportedendpoint=AC50 result=inactive
compound="O=c1n(CC2CO2)c(=O)n(CC2CO2)c(=O)n1CC1CO1 (centres undefined)" reportedendpoint=AC50 result="26.3 µM (active)"
compound="O=C1OC(=O)C2C3C=CC(C3)C12 (centres undefined)" reportedendpoint=AC50 result=inactive

Here are 7 compounds. What values of AC50 were reported for them?
1. Cn1cnc([N+](=O)[O-])c1Sc1ncnc2nc[nH]c12
2. O=C(OC[C@H]1O[C@@H](OC(=O)c2cc(O)c(O)c(OC(=O)c3cc(O)c(O)c(O)c3)c2)[C@H](OC(=O)c2cc(O)c(O)c(OC(=O)c3cc(O)c(O)c(O)c3)c2)[C@@H](OC(=O)c2cc(O)c(O)c(OC(=O)c3cc(O)c(O)c(O)c3)c2)[C@@H]1OC(=O)c1cc(O)c(O)c(OC(=O)c2cc(O)c(O)c(O)c2)c1)c1cc(O)c(O)c(OC(=O)c2cc(O)c(O)c(O)c2)c1
3. CC(C)=CCC/C(C)=C\CO
4. CCOCCOCCOCCO
5. CC(C)CC(C)(O)C#CC(C)(O)CC(C)C (centres undefined)
6. O=C(O)CC(O)C(=O)O (centres undefined)
7. CC(=O)c1ccc2c(c1)[C@H](NC(=O)c1ccc(F)cc1)[C@@H](O)C(C)(C)O2

1. inactive
2. 11.2 µM (active)
3. inactive
4. inactive
5. inactive
6. inactive
7. inactive
